TARGET ENTITY: T1, human PD-1 expressed on cells (human, UniProt Q15116 25-288)
T1 construct: whole, on cells
T1 sequence (Q15116 25-288): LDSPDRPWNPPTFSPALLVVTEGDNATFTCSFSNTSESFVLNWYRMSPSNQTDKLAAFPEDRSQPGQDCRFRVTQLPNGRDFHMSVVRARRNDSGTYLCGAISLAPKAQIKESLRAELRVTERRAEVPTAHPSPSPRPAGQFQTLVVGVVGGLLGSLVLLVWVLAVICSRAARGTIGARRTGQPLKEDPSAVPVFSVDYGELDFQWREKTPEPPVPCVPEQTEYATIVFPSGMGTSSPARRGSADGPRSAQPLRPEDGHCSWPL
ASSAY: flow cytometry, activated PBMC donor FA
READOUT: EC50 (nM)
The reply should be a number in nM, with the unit left off.

What measured EC50 goes with 38B2 (antibody, V domains shown, 24H9 derivative, IgG; also called 780_54; hPD1 Ab (38B2)) VH: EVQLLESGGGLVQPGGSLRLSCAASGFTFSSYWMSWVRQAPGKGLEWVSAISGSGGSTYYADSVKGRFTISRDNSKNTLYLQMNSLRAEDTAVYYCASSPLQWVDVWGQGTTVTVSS VL: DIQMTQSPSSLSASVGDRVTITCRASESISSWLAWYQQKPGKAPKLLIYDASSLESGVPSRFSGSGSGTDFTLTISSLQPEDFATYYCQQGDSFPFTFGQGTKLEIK ?
0.15

What measured EC50 goes with 33C4 (antibody, V domains shown, also called 780_39) VH: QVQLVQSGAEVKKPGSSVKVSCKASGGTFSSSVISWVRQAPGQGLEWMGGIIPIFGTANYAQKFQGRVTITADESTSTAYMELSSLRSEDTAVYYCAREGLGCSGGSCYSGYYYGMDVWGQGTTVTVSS VL: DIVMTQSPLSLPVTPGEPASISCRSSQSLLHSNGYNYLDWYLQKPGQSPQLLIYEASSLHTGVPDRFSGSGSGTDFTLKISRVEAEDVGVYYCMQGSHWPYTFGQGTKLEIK ?
0.041

What measured EC50 goes with 31B1 (antibody, V domains shown, also called 780_38; 33B1 and 31B2 (apparent misprints)) VH: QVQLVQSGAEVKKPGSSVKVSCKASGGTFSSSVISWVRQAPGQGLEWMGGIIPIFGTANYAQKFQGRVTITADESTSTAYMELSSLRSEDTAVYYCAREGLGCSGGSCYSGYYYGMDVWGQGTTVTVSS VL: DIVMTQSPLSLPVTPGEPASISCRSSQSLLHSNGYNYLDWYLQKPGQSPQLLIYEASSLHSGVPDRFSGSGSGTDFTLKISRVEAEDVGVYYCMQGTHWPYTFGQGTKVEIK ?
0.049

What measured EC50 goes with 38A6 (antibody, V domains shown, also called 780_46) VH: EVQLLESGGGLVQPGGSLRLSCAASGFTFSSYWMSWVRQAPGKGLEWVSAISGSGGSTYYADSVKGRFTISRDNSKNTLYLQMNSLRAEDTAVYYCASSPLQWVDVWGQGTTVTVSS VL: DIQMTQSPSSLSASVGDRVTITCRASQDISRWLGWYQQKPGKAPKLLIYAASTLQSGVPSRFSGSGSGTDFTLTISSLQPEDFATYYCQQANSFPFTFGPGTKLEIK ?
0.21

Each recorded value in this set is attributed to patent US20230416363A1.
